target: human M4 receptor (Homo sapiens (Human), UniProt P08173); assay: Radioligand (tritiated N-methylscopolamine) binding assay, M4; conditions: Ki against the M4 receptor; membranes from CHO cells expressing human M4; tritiated N-methylscopolamine 1.5 nM; read-out: Ki
Sequence (P08173 whole entry): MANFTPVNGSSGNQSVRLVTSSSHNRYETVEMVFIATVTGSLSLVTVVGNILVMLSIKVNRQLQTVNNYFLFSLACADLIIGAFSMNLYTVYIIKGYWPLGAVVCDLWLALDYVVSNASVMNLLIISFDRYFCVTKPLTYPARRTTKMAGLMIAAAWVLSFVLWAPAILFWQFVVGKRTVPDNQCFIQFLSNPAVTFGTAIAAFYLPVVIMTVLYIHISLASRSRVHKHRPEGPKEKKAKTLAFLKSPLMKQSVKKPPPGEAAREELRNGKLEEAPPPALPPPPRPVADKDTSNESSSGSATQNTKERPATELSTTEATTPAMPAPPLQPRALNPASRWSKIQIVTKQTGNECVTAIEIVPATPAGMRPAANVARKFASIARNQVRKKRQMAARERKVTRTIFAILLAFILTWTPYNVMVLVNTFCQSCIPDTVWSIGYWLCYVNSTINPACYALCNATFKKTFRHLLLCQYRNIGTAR
Entries and their Ki values follow.
metricName: Ki

N#Cc1cc(C(F)(F)F)ccc1N1CCN(C(=O)NCCC2CCN(Cc3ccccc3)CC2)CC1: 10 to 100 nM
C[C@@H]1CN(c2ncc(C#N)cn2)C[C@H](C)N1C(=O)NCCC1CCN(Cc2ccc3c(c2)nnn3C)CC1: 100 to 1000 nM
C[C@@H]1CN(c2ccc3c(c2)OC(F)(F)O3)CCN1C(=O)NCCC1CCN(Cc2ccccc2)CC1: < 10 nM
C[C@@H]1CN(c2cc(F)c(F)cc2F)C[C@H](C)N1C(=O)NCCC1CCN(Cc2ccccc2)CC1: 10 to 100 nM
C[C@@H]1CN(c2nc(C#N)cc(C#N)n2)CCN1C(=O)NCCC1CCN(Cc2ccccc2)CC1 [4-75]: 10 to 100 nM
Cc1ccc(N2CCN(C(=O)NCCC3CCN(Cc4ccccc4)CC3)[C@H](C)C2)cn1: 100 to 1000 nM
N#Cc1ccc(N2CCC(C(=O)NCCC3CCN(Cc4ccccc4)CC3)CC2)c(F)c1: 100 to 1000 nM
C[C@@H]1CN(c2cc(F)c(F)c(F)c2)CCN1C(=O)NCCC1(O)CCN(Cc2ccccc2)CC1: < 10 nM
CCCn1c(=O)c2nc(-c3ccc(C(=O)NCCC4CCN(Cc5ccccc5)CC4)cc3)[nH]c2n(CCC)c1=O: 10 to 100 nM
COc1nc(N2CCN(C(=O)NCCC3CCN(Cc4ccccc4)CC3)[C@H](C)C2)ncc1C#N [5-16]: 10 to 100 nM
N#Cc1cccc(N2CCC(NC(=O)OCCC3CCN(Cc4ccccc4)CC3)CC2)c1: 100 to 1000 nM
C[C@@H]1CN(c2ncc(Cl)c(N)n2)CCN1C(=O)NCCC1CCN(Cc2ccccc2)CC1: < 10 nM
O=C(NCCC1(O)CCN(Cc2ccccc2)CC1)C1CCN(c2ccc(OC(F)(F)F)c(F)c2)CC1: < 10 nM
C[C@@H]1CN(c2ncc(C#N)c(NCC(F)(F)F)n2)C[C@H](C)N1C(=O)NCCC1CCN(Cc2ccccc2)CC1: 10 to 100 nM
O=C(NCCN[C@@H]1CCN(Cc2ccccc2)C1)C1CCN(c2ccc(OC(F)(F)F)c(F)c2)CC1: 10 to 100 nM
CC(=O)c1ccc(N2CCN(C(=O)NCCC3CCN(Cc4ccccc4)CC3)CC2)cc1: 100 to 1000 nM
C[C@@H]1CN(c2ccc(OC(F)(F)F)c(C#N)c2)CCN1C(=O)NCCC1CCN(Cc2ccc(I)cc2)CC1: 10 to 100 nM
C[C@@H]1CN(c2ncc(C(F)(F)F)cc2F)CCN1C(=O)NCCC1CCN(Cc2ccccc2)CC1: < 10 nM
C[C@H]1CN(c2cc(F)c(F)c(F)c2)CCN1C(=O)NCCC1CCN(Cc2ccccc2)CC1: 10 to 100 nM
C[C@@H]1CN(c2cc(F)c(F)c(F)c2)CCN1C(=O)NCCC1CCN(Cc2ccccc2OC(F)F)CC1: 10 to 100 nM
C[C@@H]1CN(c2ncc(C(=O)NCCF)cn2)C[C@H](C)N1C(=O)NCCC1CCN(Cc2ccccc2)CC1: 100 to 1000 nM
